Could you please report measured inhibition for the items listed next?
Species: Rattus norvegicus
PROTOCOL SUMMARY: Inhibition of rat protein farnesyltransferase at 500 nM
Numeric only. Scale: %

Report inhibition for Cn1cnc(S(=O)(=O)N(Cc2ccccc2)C2Cc3cc(C#N)ccc3N(Cc3cncn3C)C2=O)c1 (stereo unspecified) please.
5

Report inhibition for Cn1cnc(S(=O)(=O)N(Cc2ccc(S(C)(=O)=O)cc2)C2Cc3cc(C#N)ccc3N(Cc3cncn3C)C2=O)c1 (stereo unspecified) please.
23

Report inhibition for Cn1cnc(S(=O)(=O)N(CC(=O)OC(C)(C)C)C2Cc3cc(C#N)ccc3N(Cc3cncn3C)C2=O)c1 (stereo unspecified) please.
75

Report inhibition for Cn1cnc(S(=O)(=O)N(Cc2ccc(S(C)(=O)=O)cc2)C2Cc3cc(Br)ccc3N(Cc3cncn3C)C2=O)c1 (stereo unspecified) please.
0

Report inhibition for Cn1cnc(S(=O)(=O)N(Cc2ccc(-n3cccn3)cc2)C2Cc3cc(C#N)ccc3N(Cc3cncn3C)C2=O)c1 (stereo unspecified) please.
54

Report inhibition for Cn1cnc(S(=O)(=O)N(CC(=O)NC(C)(C)C)C2Cc3cc(C#N)ccc3N(Cc3cncn3C)C2=O)c1 (stereo unspecified) please.
62

---

Tested on: Plasmodium falciparum
PROTOCOL SUMMARY: Displacement of [3H]farnesylpyrophosphate from Plasmodium falciparum protein farnesyltransferase at 0.5 nM by scintillation proximity assay
Classification field: enter Satisfied for inhibition values not below 20%, Not satisfied for values below it.

Identify whether the reported inhibition of the following molecule is 20% or greater: Cn1cnc(S(=O)(=O)N(Cc2ccc(S(C)(=O)=O)cc2)C2Cc3cc(C#N)ccc3N(Cc3cncn3C)C2=O)c1 (configuration not stated)
Satisfied

Identify whether the reported inhibition of the following molecule is 20% or greater: Cn1cncc1CN1C(=O)C(N(CC(=O)NC(C)(C)C)S(=O)(=O)c2ccc3c(c2)OCCCO3)Cc2cc(C#N)ccc21 (configuration not stated)
Not satisfied

Identify whether the reported inhibition of the following molecule is 20% or greater: Cn1cncc1CN1C(=O)C(NS(=O)(=O)c2ccccn2)Cc2cc(Br)ccc21 (configuration not stated)
Not satisfied

Identify whether the reported inhibition of the following molecule is 20% or greater: Cn1cncc1CN1C(=O)C(N(CC(=O)NC(C)(C)C)S(=O)(=O)c2cccc(F)c2)Cc2cc(C#N)ccc21 (configuration not stated)
Not satisfied

Identify whether the reported inhibition of the following molecule is 20% or greater: Cn1cnc(S(=O)(=O)N(Cc2ccccc2F)C2Cc3cc(C#N)ccc3N(Cc3cncn3C)C2=O)c1 (configuration not stated)
Satisfied

Identify whether the reported inhibition of the following molecule is 20% or greater: Cn1cnc(S(=O)(=O)N(Cc2ccccn2)C2Cc3cc(C#N)ccc3N(Cc3cncn3C)C2=O)c1 (configuration not stated)
Not satisfied

Identify whether the reported inhibition of the following molecule is 20% or greater: Cn1cncc1CN1C(=O)C(N(Cc2ccc(S(C)(=O)=O)cc2)S(=O)(=O)c2ccccn2)Cc2cc(C#N)ccc21 (configuration not stated)
Not satisfied

Identify whether the reported inhibition of the following molecule is 20% or greater: Cn1cnc(S(=O)(=O)N(CC(=O)NC(C)(C)C)C2Cc3cc(Br)ccc3N(Cc3cncn3C)C2=O)c1 (configuration not stated)
Satisfied

Identify whether the reported inhibition of the following molecule is 20% or greater: Cn1cnc(S(=O)(=O)N(Cc2ccc(C#N)cc2)C2Cc3cc(C#N)ccc3N(Cc3cncn3C)C2=O)c1 (configuration not stated)
Satisfied

Identify whether the reported inhibition of the following molecule is 20% or greater: Cc1ccccc1CN(C1Cc2cc(C#N)ccc2N(Cc2cncn2C)C1=O)S(=O)(=O)c1cn(C)cn1 (configuration not stated)
Not satisfied

Identify whether the reported inhibition of the following molecule is 20% or greater: Cc1c(S(=O)(=O)N(CC(=O)NC(C)(C)C)C2Cc3cc(C#N)ccc3N(Cc3cncn3C)C2=O)ncn1C (configuration not stated)
Not satisfied

Identify whether the reported inhibition of the following molecule is 20% or greater: Cn1cnc(S(=O)(=O)N(CC(=O)NC(C)(C)C)C2Cc3cc(C#N)ccc3N(Cc3cncn3C)C2=O)c1 (configuration not stated)
Satisfied

Identify whether the reported inhibition of the following molecule is 20% or greater: COC(=O)C1CCC(CN(C2Cc3cc(C#N)ccc3N(Cc3cncn3C)C2=O)S(=O)(=O)c2cn(C)cn2)CC1 (configuration not stated)
Satisfied

Identify whether the reported inhibition of the following molecule is 20% or greater: Cn1cnc(S(=O)(=O)N(CC(=O)c2ccsc2)C2Cc3cc(C#N)ccc3N(Cc3cncn3C)C2=O)c1 (configuration not stated)
Satisfied

Identify whether the reported inhibition of the following molecule is 20% or greater: Cn1cnc(S(=O)(=O)N(Cc2ccccc2)C2Cc3cc(C#N)ccc3N(Cc3cncn3C)C2=O)c1 (configuration not stated)
Satisfied

Identify whether the reported inhibition of the following molecule is 20% or greater: Cn1cnc(S(=O)(=O)NC2Cc3cc(Br)ccc3N(Cc3cncn3C)C2=O)c1 (configuration not stated)
Not satisfied

Identify whether the reported inhibition of the following molecule is 20% or greater: Cn1cnc(S(=O)(=O)N(Cc2ccc(-n3cccn3)cc2)C2Cc3cc(C#N)ccc3N(Cc3cncn3C)C2=O)c1 (configuration not stated)
Satisfied

---

System: Plasmodium falciparum
PROTOCOL SUMMARY: Displacement of [3H]farnesylpyrophosphate from Plasmodium falciparum protein farnesyltransferase at 50 nM by scintillation proximity assay
Classification field: enter condition met for inhibition values not below 80%, condition not met for values below it.

Identify whether the reported inhibition of the following compound is 80% or greater: Cn1cnc(S(=O)(=O)N(Cc2ccccn2)C2Cc3cc(C#N)ccc3N(Cc3cncn3C)C2=O)c1 (configuration not stated)
condition not met

Identify whether the reported inhibition of the following compound is 80% or greater: Cn1cncc1CN1C(=O)C(N(Cc2ccc(S(C)(=O)=O)cc2)S(=O)(=O)c2ccccn2)Cc2cc(C#N)ccc21 (configuration not stated)
condition met

Identify whether the reported inhibition of the following compound is 80% or greater: Cn1cncc1CN1C(=O)C(N(CC(=O)NC(C)(C)C)S(=O)(=O)c2cccc(F)c2)Cc2cc(C#N)ccc21 (configuration not stated)
condition not met

Identify whether the reported inhibition of the following compound is 80% or greater: Cn1cnc(S(=O)(=O)N(Cc2ccc(S(C)(=O)=O)cc2)C2Cc3cc(Br)ccc3N(Cc3cncn3C)C2=O)c1 (configuration not stated)
condition met

Identify whether the reported inhibition of the following compound is 80% or greater: Cn1cnc(S(=O)(=O)N(Cc2ccccc2F)C2Cc3cc(C#N)ccc3N(Cc3cncn3C)C2=O)c1 (configuration not stated)
condition met

Identify whether the reported inhibition of the following compound is 80% or greater: Cn1cnc(S(=O)(=O)N(CC(=O)OC(C)(C)C)C2Cc3cc(C#N)ccc3N(Cc3cncn3C)C2=O)c1 (configuration not stated)
condition met

---

Tested on: Plasmodium falciparum
PROTOCOL SUMMARY: Antimalarial activity against chloroquine-sensitive Plasmodium falciparum 3D7 in human red cells
Format: functional
CONDITION DETAILS: read-out: ED50 (the source's name)
VALUE TYPE: pEC50
Remember, pEC50 is on a log scale: it is -log10 of the molar concentration.

Report pEC50 for Cn1cnc(S(=O)(=O)N(CC(=O)NC(C)(C)C)C2Cc3cc(Br)ccc3N(Cc3cncn3C)C2=O)c1 (configuration not stated) please.
6.98

Report pEC50 for Cn1cnc(S(=O)(=O)NC2Cc3cc(Br)ccc3N(Cc3cncn3C)C2=O)c1 (configuration not stated) please.
5.30

Report pEC50 for COC(=O)C1CCC(CN(C2Cc3cc(C#N)ccc3N(Cc3cncn3C)C2=O)S(=O)(=O)c2cn(C)cn2)CC1 (configuration not stated) please.
6.98

Report pEC50 for Cn1cnc(S(=O)(=O)N(C(CC(=O)OC(C)(C)C)C(=O)OC(C)(C)C)C2Cc3cc(C#N)ccc3N(Cc3cncn3C)C2=O)c1 (configuration not stated) please.
5.30

Report pEC50 for Cn1cnc(S(=O)(=O)N(Cc2ccccc2)C2Cc3cc(C#N)ccc3N(Cc3cncn3C)C2=O)c1 (configuration not stated) please.
6.76

Report pEC50 for Cn1cnc(S(=O)(=O)N(Cc2ccc(S(C)(=O)=O)cc2)C2Cc3cc(C#N)ccc3N(Cc3cncn3C)C2=O)c1 (configuration not stated) please.
7.10

Report pEC50 for Cn1cnc(S(=O)(=O)N(CC(=O)OC(C)(C)C)C2Cc3cc(C#N)ccc3N(Cc3cncn3C)C2=O)c1 (configuration not stated) please.
7.46

Report pEC50 for Cn1cnc(S(=O)(=O)N(CC(=O)NC(C)(C)C)C2Cc3cc(C#N)ccc3N(Cc3cncn3C)C2=O)c1 (configuration not stated) please.
6.70

Report pEC50 for Cn1cnc(S(=O)(=O)N(Cc2ccccn2)C2Cc3cc(C#N)ccc3N(Cc3cncn3C)C2=O)c1 (configuration not stated) please.
5.30

Report pEC50 for Cn1cnc(S(=O)(=O)N(Cc2ccc(-n3cccn3)cc2)C2Cc3cc(C#N)ccc3N(Cc3cncn3C)C2=O)c1 (configuration not stated) please.
7.10

Report pEC50 for Cn1cnc(S(=O)(=O)N(Cc2ccc(C(F)(F)F)o2)C2Cc3cc(C#N)ccc3N(Cc3cncn3C)C2=O)c1 (configuration not stated) please.
6.20

Report pEC50 for Cn1cnc(S(=O)(=O)N(Cc2ccccc2F)C2Cc3cc(C#N)ccc3N(Cc3cncn3C)C2=O)c1 (configuration not stated) please.
6.10

Report pEC50 for C=C(C)CN(C1Cc2cc(C#N)ccc2N(Cc2cncn2C)C1=O)S(=O)(=O)c1cn(C)cn1 (configuration not stated) please.
5.49

Report pEC50 for Cn1cncc1CN1C(=O)C(N(CC(=O)NC(C)(C)C)S(=O)(=O)c2ccc3c(c2)OCCCO3)Cc2cc(C#N)ccc21 (configuration not stated) please.
5.30

Report pEC50 for Cn1cncc1CN1C(=O)C(NS(=O)(=O)c2ccccn2)Cc2cc(Br)ccc21 (configuration not stated) please.
5.30

Report pEC50 for Cc1ccccc1CN(C1Cc2cc(C#N)ccc2N(Cc2cncn2C)C1=O)S(=O)(=O)c1cn(C)cn1 (configuration not stated) please.
5.30

Report pEC50 for Cn1cnc(S(=O)(=O)N(Cc2ccc(S(C)(=O)=O)cc2)C2Cc3cc(Br)ccc3N(Cc3cncn3C)C2=O)c1 (configuration not stated) please.
6.07
